Consider the following compounds and their measured pIC50 readings.
Target: recombinant full-length USP7 (Homo sapiens, UniProt Q93009)
Construct: A 25 μl reaction volume containing recombinant full-length USP7 (62 pM)
Sequence (Q93009 whole entry): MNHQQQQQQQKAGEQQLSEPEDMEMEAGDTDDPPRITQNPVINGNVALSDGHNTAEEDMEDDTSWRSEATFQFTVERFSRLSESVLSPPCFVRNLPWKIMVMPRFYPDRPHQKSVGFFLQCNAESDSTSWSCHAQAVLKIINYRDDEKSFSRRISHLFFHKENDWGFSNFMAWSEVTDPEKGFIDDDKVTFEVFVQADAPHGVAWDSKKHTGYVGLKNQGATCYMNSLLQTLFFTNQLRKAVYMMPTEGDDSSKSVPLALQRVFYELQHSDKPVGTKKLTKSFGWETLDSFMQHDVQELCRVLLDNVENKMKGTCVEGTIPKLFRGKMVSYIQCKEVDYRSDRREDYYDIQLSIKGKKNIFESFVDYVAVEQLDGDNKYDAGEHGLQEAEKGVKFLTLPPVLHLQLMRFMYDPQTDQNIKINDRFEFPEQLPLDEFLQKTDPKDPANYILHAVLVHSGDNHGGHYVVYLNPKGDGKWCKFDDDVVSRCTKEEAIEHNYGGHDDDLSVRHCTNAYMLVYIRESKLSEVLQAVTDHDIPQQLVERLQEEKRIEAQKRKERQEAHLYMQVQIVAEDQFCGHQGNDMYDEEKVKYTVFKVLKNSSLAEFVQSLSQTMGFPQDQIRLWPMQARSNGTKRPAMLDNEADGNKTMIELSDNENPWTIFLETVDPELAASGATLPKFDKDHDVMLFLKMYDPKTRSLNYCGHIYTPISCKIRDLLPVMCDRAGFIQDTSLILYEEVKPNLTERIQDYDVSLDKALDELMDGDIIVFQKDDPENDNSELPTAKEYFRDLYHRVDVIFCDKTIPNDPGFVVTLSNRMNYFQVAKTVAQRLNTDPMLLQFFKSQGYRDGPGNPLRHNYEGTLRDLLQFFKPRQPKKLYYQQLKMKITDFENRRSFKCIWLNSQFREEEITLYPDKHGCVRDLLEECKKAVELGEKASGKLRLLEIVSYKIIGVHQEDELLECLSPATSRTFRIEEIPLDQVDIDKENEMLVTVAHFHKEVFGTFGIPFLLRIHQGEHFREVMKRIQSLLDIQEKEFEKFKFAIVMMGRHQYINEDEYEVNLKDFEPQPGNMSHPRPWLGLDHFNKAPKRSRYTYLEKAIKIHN
Test: USP7-mediated ubiquitin-rhodamine cleavage assay
Assay type: biochemical
Settings: recombinant full-length USP7 62 pM; ubiquitin-rhodamine 100 nM; 30-minute incubation with compound, 1 hour reaction at room temperature; read-out: Potency: USP7 IC50
pIC50: −log10 of the molar value.

# get_value(readout='pIC50', item= Cc1cc(Cl)cc(-c2ccnc3cc(CN4C(=O)C5C(C4=O)C5(C)C)sc23)c1OC1CC(N)C1 (stereo not shown) ) > 6.00

Do the same for Cc1cc(Cl)cc(-c2ccnc3cc(CN4C(=O)CCC4=O)sc23)c1OC1CNCCOC1 (stereo not shown) please 5.00 to 6.00

Again, but for `Cc1cc(C#N)cc(-c2ccnc3cc(CN4C(=O)CCC4=O)sc23)c1O[C@@H]1CNC[C@@H]1F` > 6.00

New cases:
Form field: reported pIC50 of Cc1cc(Cl)cc(-c2ccnc3cc(CN4C(=O)CCC4C(F)(F)F)sc23)c1O[C@@H]1CNC[C@@H]1F (stereo partly shown) > 6.00
